studyTarget: T1, IL-36R naturally expressed on OVCAR8 cells and on normal human epidermal keratinocytes (NHK cells) (human, UniProt Q9HB29 20-575)
T1 sequence (looked up): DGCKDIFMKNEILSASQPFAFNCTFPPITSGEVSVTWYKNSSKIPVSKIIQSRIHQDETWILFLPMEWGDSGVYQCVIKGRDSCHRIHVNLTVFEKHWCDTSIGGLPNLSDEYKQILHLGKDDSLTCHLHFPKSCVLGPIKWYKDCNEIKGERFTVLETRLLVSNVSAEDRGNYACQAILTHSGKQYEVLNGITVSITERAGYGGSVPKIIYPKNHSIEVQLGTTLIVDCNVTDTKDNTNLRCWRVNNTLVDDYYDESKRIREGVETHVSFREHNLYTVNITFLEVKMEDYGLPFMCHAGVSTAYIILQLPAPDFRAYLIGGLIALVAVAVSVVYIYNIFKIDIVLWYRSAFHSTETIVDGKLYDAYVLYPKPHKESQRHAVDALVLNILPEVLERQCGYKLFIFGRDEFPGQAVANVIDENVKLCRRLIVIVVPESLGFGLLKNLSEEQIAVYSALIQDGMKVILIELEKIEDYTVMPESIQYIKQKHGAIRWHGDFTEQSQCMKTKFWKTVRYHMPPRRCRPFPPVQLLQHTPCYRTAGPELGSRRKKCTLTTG
testMethodNotes: cell-based or functional assay
Below, each of the binders is paired with its reported IC50 (M); hIL36αβγ; IL-8 production value.
metricName: IC50 (M); hIL36αβγ; IL-8 production

binder="hz84C4-1.4 (antibody, human IgG4 S228P, kappa, V domains shown, Humanized, human IgG4 / kappa) VH: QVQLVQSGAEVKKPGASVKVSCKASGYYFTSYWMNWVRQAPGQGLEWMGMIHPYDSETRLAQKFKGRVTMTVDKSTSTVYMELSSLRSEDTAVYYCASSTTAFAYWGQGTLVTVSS VL: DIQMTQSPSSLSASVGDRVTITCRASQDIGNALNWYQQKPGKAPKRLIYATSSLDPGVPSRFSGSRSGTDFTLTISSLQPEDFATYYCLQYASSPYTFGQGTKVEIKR" result=1.12e-11
binder="hz84C4-2.4 (antibody, human IgG4 S228P, kappa, V domains shown, Humanized, human IgG4 / kappa) VH: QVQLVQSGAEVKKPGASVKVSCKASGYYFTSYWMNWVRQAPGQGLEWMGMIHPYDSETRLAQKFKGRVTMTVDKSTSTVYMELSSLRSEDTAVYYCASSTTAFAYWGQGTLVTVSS VL: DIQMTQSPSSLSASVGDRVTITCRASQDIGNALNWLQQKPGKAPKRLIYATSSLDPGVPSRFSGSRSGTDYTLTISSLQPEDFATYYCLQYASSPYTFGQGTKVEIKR" result=2.58e-12
binder="hz84C4-1.2 (antibody, human IgG4 S228P, kappa, V domains shown, Humanized, human IgG4 / kappa) VH: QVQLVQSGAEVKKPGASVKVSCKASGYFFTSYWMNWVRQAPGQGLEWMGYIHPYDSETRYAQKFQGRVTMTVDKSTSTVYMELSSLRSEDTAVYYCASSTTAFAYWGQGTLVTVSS VL: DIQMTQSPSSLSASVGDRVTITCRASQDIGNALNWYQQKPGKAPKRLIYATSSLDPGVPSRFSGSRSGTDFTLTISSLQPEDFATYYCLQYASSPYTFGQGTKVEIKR" result=7.75e-12
